Kindly state selectivity ratio for each of the entries shown.
Test: Selectivity index, ratio of HC50 for hemolytic activity in sheep erythrocyte assessed as hemolysis to MIC for antibacterial activity against Staphylococcus aureus ATCC 29213
Assay type: toxicity
Settings: sheep erythrocytes, read-out: Selectivity Index

Query block: Given CCCNC(=O)C[N+](C)(C)CCCOc1ccc2ccc(=O)oc2c1CC=C(C)C.[Br-] , state its recorded selectivity ratio.
Result block: > 10

Query block: Given CC(C)=CCc1c(OCCC[N+](C)(C)CC(=O)N(CC(C)C)CC(C)C)ccc2ccc(=O)oc12.[Br-] , state its recorded selectivity ratio.
Result block: > 320

Query block: Given CCCCCNC(=O)C[N+](C)(C)CCCCOc1ccc2ccc(=O)oc2c1CC=C(C)C.[Br-] , state its recorded selectivity ratio.
Result block: > 160

Query block: Given CC(C)=CCc1c(OCCCC[N+](C)(C)CC(=O)N(CC(C)C)CC(C)C)ccc2ccc(=O)oc12.[Br-] , state its recorded selectivity ratio.
Result block: > 320

Query block: Given CCNC(=O)C[N+](C)(C)CCCCCOc1ccc2ccc(=O)oc2c1CC=C(C)C.[Br-] , state its recorded selectivity ratio.
Result block: > 20
